Data provenance: ChEMBL document CHEMBL4888484

Would you kindly list % Inhibition for each of these compounds?
system: Plasmodium falciparum; assay: Confirmatory screen in NF54 pLDH assay, in single point, at 2uM, 72h; type: functional, Erythrocyte; settings: timepoint 72 hour
Hit rate of the full screen: of about 4,800 compounds, about 410 (8.5%) showed an effect of 50% or more. Many of the other results were omitted from the sample, so strong results are more common in it than they were.
One number for each entry, in %.

The following compounds each have a reported value; give each one's % Inhibition.
1. O=C(Nc1ccncc1)c1nc(N2CCCC2)ncc1Br
2. C[C@](O)(CCc1ccccc1)C(=O)NCCc1ncc[nH]1
3. COc1ccc(Cl)cc1NC(=O)Cc1c(C)nc2nc(-c3ccccc3C)nn2c1C
4. CC(C)Nc1nc2nonc2n2cnnc12
5. COc1ccc(CC(=O)Nc2cc(C)n(-c3cccc(Cl)c3)n2)cc1

[reply]
1. -9
2. 6
3. 6
4. 90
5. 93

----------
tested on: Plasmodium falciparum; experiment: Confirmatory screen in NF54 pLDH assay, in single point, at 2uM, 72h; type: functional, Erythrocyte; conditions: timepoint 72 hour
Out of some 4,800 compounds screened, about 410 (8.5%) showed an effect of 50% or more. Many of the other results were omitted from the sample, so strong results are more common in it than they were.
reported-metric: % Inhibition (%)
One number for each entry, in %.

Illustrative cases are given below, each with its answer.
Cc1cc(=O)[nH]c(N2CCCCCC2)n1: 8
COc1ccc([C@H](C(=O)Nc2ccc(N(C)C)cc2)N(Cc2ccccc2)C(=O)Cc2ccccc2)cc1OC: -14

Would you be so kind as to report % Inhibition for each listed record?
1. Cc1nn(Cc2cccc(F)c2)c(C)c1NC(=O)c1cccc(COc2ccc(Br)cc2)c1
2. CCNC(=O)c1ccc(-c2nc(CS(=O)(=O)c3ccccc3)c(C)o2)cc1
3. Cc1ccc(S(=O)(=O)Cc2nc(-c3ccc(C(=O)Nc4c(C)cccc4C)cc3)oc2C)cc1

[reply]
[16, -10, 13]

----------
Please go through the items and note down their % Inhibition.
tested on: Plasmodium falciparum; test: Confirmatory screen in NF54 pLDH assay, in single point, at 2uM, 72h; assay type: functional, Erythrocyte; conditions: timepoint 72 hour
In all, about 4,800 compounds went through this assay and about 410 (8.5%) showed an effect of 50% or more. The sample holds strong results, similar compounds and a random draw of the others, so the mix is not that of the screen.
Answers are plain numbers, in %.

O=C(c1cn[nH]c1-c1ccccc1)N1CCCCCC1: 1
CC(=O)c1ccc(C(C)(C)C)cc1NC(=O)C(C)C: 8

Hey, can you go through the list below and give me % Inhibition for every item?
1. Cc1sc(NC(N)=O)nc1Cc1ccccc1
2. Cn1cc(C(C(=O)O[C@@H]2C[C@@H]3CC[C@@]2(C)C3(C)C)c2cn(C)c3ccccc23)c2ccccc21
3. c1ccc(-c2cccnc2NCc2cscn2)cc1
4. COc1ccc(N(C)S(=O)(=O)c2ccsc2-c2nc(-c3cccnc3)no2)cc1Cl
5. Cc1ccc(C(=O)NCCn2cnc3ccccc3c2=O)cn1
6. O=C(NC[C@H](O)c1ccc(Cl)s1)c1ccsc1

[reply]
1: 10; 2: 3; 3: -3; 4: -2; 5: -7; 6: 2

Hi team, please reply with % Inhibition for each item in this list.
1. C[C@H](NC(=O)CC1(C)CCCCC1)c1cnn(C)c1
2. CCCCN1CCN(C(=O)CN2CCN(Cc3ccc(F)cc3Cl)C2=O)CC1
3. CNC(=O)C(=O)Nc1ccccc1C(F)(F)F
4. Cc1cccc(-n2c(=O)[nH]c3nc(NCCN(C)C)ncc3c2=O)c1C
5. C[C@H]1C(=O)N(C)C[C@@H](CNS(=O)(=O)c2ccccc2)N1Cc1cccnc1
6. CCCN1CCN(S(=O)(=O)c2cccc3nonc23)CC1
7. COc1ccc(CNC(=O)c2sc(Nc3ccc(C)cc3C)nc2C)c(OC)c1
8. CN1CCN(c2c(F)cc3c(=O)c(C(=O)O)cn(-c4ccc(OC5CC6CCC5(C)C6(C)C)c(F)c4)c3c2F)CC1 (configuration not stated)

[reply]
1: -5; 2: 1; 3: 9; 4: 8; 5: 9; 6: 11; 7: -2; 8: -4

The following compounds each have a reported value; give each one's % Inhibition.
1. OC(CNC1CCCNc2ccccc21)c1ccc(Cl)s1 (configuration not stated)
2. Cc1ccc(C)c(C(=O)Cn2nc3ccc(-c4ccc(Cl)cc4)nn3c2=O)c1

[reply]
1. 51
2. 6

Please look at the items below and tell me % Inhibition for each one, in order.
1. C[C@H](c1ccccc1)N1C(=O)[C@@H]2CN(C(=O)CC(C)(C)C)CCN2C1=O
2. CCN(C(=O)[C@H]1CCN(C)[C@@H](C)C1)C1CCCC1
3. CC[N+](CC)(CC(=O)OC1CC2CCC1(C)C2(C)C)CC(=O)OC1CC2CCC1(C)C2(C)C (configuration not stated)
4. Cc1cc2c(OC[C@@H](O)CN3CCOCC3)cccc2[nH]1

[reply]
[-13, 11, 92, -7]
